Tested on: IGROV-1
Test: SRB colorimetric assay of cell growth and viability, IGROV-1
Type: cell-based, human
Settings: 48 hours exposure
Exercise: state measured LC50 (concentration causing 50% net cell killing) for each of the molecules provided.

Would you please give the reported LC50 (concentration causing 50% net cell killing) of C/C=C1\NC(=O)[C@H](Cc2ccccc2)NC(=O)[C@@H](C(C)C)NC(=O)[C@@H]([C@@H](C)CC)NC(=O)[C@H](NC(=O)[C@H](NC(=O)[C@H](CCCN)NC(=O)[C@H]2CCCN2C(=O)[C@H](NC(=O)[C@@H](NC(=O)[C@@H](NC(=O)[C@H](NC(=O)CCCCC(C)=O)C(C)C)[C@@H](C)O)C(C)C)C(C)C)[C@@H](C)CC)[C@@H](C)OC(=O)[C@H](C(C)C)NC1=O [Compound 27, [6-OHep^14]-KF] with IGROV-1?
6.7 µM

State measured LC50 (concentration causing 50% net cell killing) of the molecule C/C=C1\NC(=O)[C@H](Cc2ccccc2)NC(=O)[C@@H](C(C)C)NC(=O)[C@@H]([C@@H](C)CC)NC(=O)[C@H](NC(=O)[C@H](NC(=O)[C@H](CCCN)NC(=O)[C@H]2CCCN2C(=O)[C@H](NC(=O)[C@H](NC(=O)[C@@H](NC(=O)[C@H](NC(=O)CCCC(C)C)C(C)C)[C@@H](C)O)C(C)C)C(C)C)[C@@H](C)CC)[C@@H](C)OC(=O)[C@H](C(C)C)NC1=O [Compound 46, [D-Val^11]-KF] with IGROV-1.
≥ 6.77 µM

Look up and report measured LC50 (concentration causing 50% net cell killing) (IGROV-1) for the following molecule: C/C=C1\NC(=O)[C@H](Cc2ccccc2)NC(=O)[C@@H](C(C)C)NC(=O)[C@@H]([C@@H](C)CC)NC(=O)[C@H](NC(=O)[C@H](NC(=O)[C@H](CCCN)NC(=O)[C@H]2CCCN2C(=O)[C@H](NC(=O)[C@@H](NC(=O)[C@@H](NC(=O)[C@@H](CCC(=O)O)NC(=O)CCCC(C)C)[C@@H](C)O)C(C)C)C(C)C)[C@@H](C)CC)[C@@H](C)OC(=O)[C@H](C(C)C)NC1=O [Compound 39, [D-Glu^13]-KF]
4.11 µM

###

Tested on: SK-MEL-28
Experiment: SRB colorimetric assay of cell growth and viability, SK-MEL-28
Type: cell-based, human
Conditions: 48 hours exposure; read-out: LC50 MEL-28
Where a SMILES comes first, the peptide text is derived from it. Bridges are numbered along the chain shown (N, C = ends). [ ]: non-standard residue; d: D form. The star is where a group is joined. d(aIle) = CC[C@H](C)[C@@H](N)C(=O)O; d(aThr) = C[C@@H](O)[C@@H](N)C(=O)O; Hexanoyl(5-Me) = CC(C)CCCC(=O)*; Orn = NCCC[C@H](N)C(=O)O; Dhb = C/C=C(\N)C(=O)O
reported-metric: CC50 (µM)
Your answer is read as µM, so omit the unit and give the number.

Item C/C=C1\NC(=O)[C@H](Cc2ccccc2)NC(=O)[C@@H](C(C)C)NC(=O)[C@@H]([C@@H](C)CC)NC(=O)[C@H](NC(=O)[C@H](NC(=O)[C@H](CCCN)NC(=O)[C@H]2CCCN2C(=O)[C@H](NC(=O)[C@@H](NC(=O)[C@@H](NC(=O)[C@H](NC(=O)CCCC(C)C)C(C)C)[C@@H](C)O)C(C)C)C(C)C)[C@@H](C)CC)COC(=O)[C@H](C(C)C)NC1=O [Compound 3, [D-Ser^6]-KF] ({Hexanoyl(5-Me)}-[dV]TV[dV][dP][Orn][d(aIle)][dS][d(aIle)][dV]F[Dhb]V; ester 8-C) : provide CC50
4.53

Tell us which CC50 value is on record for C/C=C1\NC(=O)[C@H](Cc2ccccc2)NC(=O)[C@@H](C(C)C)NC(=O)[C@@H]([C@@H](C)CC)NC(=O)[C@H](NC(=O)[C@H](NC(=O)[C@H](CCCN)NC(=O)[C@H]2CCCN2C(=O)[C@H](NC(=O)[C@@H](NC(=O)[C@@H](NC(=O)[C@H](NC(=O)CC[C@H](C)CC)C(C)C)[C@@H](C)O)C(C)C)C(C)C)[C@@H](C)CC)[C@@H](C)OC(=O)[C@H](C(C)C)NC1=O [Compound 16, [(4R)-MeHex^14]-KF]
3.8

Please look at this compound and report its CC50: C/C=C1\NC(=O)[C@H](Cc2ccccc2)NC(=O)[C@@H](C(C)C)NC(=O)[C@@H]([C@@H](C)CC)NC(=O)[C@H](NC(=O)[C@H](NC(=O)[C@H](CCCN)NC(=O)[C@H]2CCCN2C(=O)[C@H](NC(=O)[C@H](CCCN)NC(=O)[C@@H](NC(=O)[C@H](NC(=O)CCCC(C)C)C(C)C)[C@@H](C)O)C(C)C)[C@@H](C)CC)[C@@H](C)OC(=O)[C@H](C(C)C)NC1=O [Compound 49, [Orn^11]-KF] ({Hexanoyl(5-Me)}-[dV]T[Orn][dV][dP][Orn][d(aIle)][d(aThr)][d(aIle)][dV]F[Dhb]V; ester 8-C)
4.69

// fetch CC50 given entry C/C=C1\NC(=O)[C@H](Cc2ccccc2)NC(=O)[C@@H](C(C)C)NC(=O)[C@@H]([C@@H](C)CC)NC(=O)[C@H](NC(=O)[C@H](NC(=O)[C@H](CCCN)NC(=O)[C@H]2CCCN2C(=O)[C@H](NC(=O)[C@@H](NC(=O)[C@@H](NC(=O)[C@H](NC(=O)CCCCCCCCCCCCCCCCCCC)C(C)C)[C@@H](C)O)C(C)C)C(C)C)[C@@H](C)CC)[C@@H](C)OC(=O)[C@H](C(C)C)NC1=O [Compound 13, [Icos^14]-KF]
3.93

Provide CC50 value for the following compound: C/C=C1\NC(=O)[C@H](Cc2ccccc2)NC(=O)[C@@H](C(C)C)NC(=O)[C@@H]([C@@H](C)CC)NC(=O)[C@H](NC(=O)[C@H](NC(=O)[C@H](CCC(=O)O)NC(=O)[C@H]2CCCN2C(=O)[C@H](NC(=O)[C@@H](NC(=O)[C@@H](NC(=O)[C@H](NC(=O)CCCC(C)C)C(C)C)[C@@H](C)O)C(C)C)C(C)C)[C@@H](C)CC)[C@@H](C)OC(=O)[C@H](C(C)C)NC1=O [Compound 4, [Glu^8]-KF] ({Hexanoyl(5-Me)}-[dV]TV[dV][dP]E[d(aIle)][d(aThr)][d(aIle)][dV]F[Dhb]V; ester 8-C)
6.7

Please indicate CC50 recorded for C/C=C1\NC(=O)[C@H](Cc2ccccc2)NC(=O)[C@@H](C(C)C)NC(=O)[C@@H]([C@@H](C)CC)NC(=O)[C@H](NC(=O)[C@H](NC(=O)[C@H](CCCN)NC(=O)[C@H]2CCCN2C(=O)[C@H](NC(=O)CCCC(C)C)C(C)C)[C@@H](C)CC)[C@@H](C)OC(=O)[C@H](C(C)C)NC1=O [Compound 31, [noVal^11, noThr^12, noD-Val^13]-KF] ({Hexanoyl(5-Me)}-[dV][dP][Orn][d(aIle)][d(aThr)][d(aIle)][dV]F[Dhb]V; ester 5-C)
8.49

###

For each of the compounds below, state its TGI SK-BR-3.
System: SK-BR-3
Test: SRB colorimetric assay of cell growth and viability, SK-BR-3
Format: cell-based, human
Conditions: 48 hours exposure
Where a SMILES comes first, the peptide text is derived from it. Bridges are numbered along the chain shown (N, C = ends). [ ]: non-standard residue; d: D form. The star is where a group is joined. d(aIle) = CC[C@H](C)[C@@H](N)C(=O)O; d(aThr) = C[C@@H](O)[C@@H](N)C(=O)O; hCha = N[C@@H](CCC1CCCCC1)C(=O)O; Hexanoyl(5-Me) = CC(C)CCCC(=O)*; dCha = N[C@H](CC1CCCCC1)C(=O)O; Orn = NCCC[C@H](N)C(=O)O; Dhb = C/C=C(\N)C(=O)O
Please give a number only; it is taken to be in Molar.

Provide TGI SK-BR-3 value for the following compound: C/C=C1\NC(=O)[C@H](Cc2ccccc2)NC(=O)[C@@H](CC2CCCCC2)NC(=O)[C@@H](CC2CCCCC2)NC(=O)[C@H](NC(=O)[C@@H](CC2CCCCC2)NC(=O)[C@H](CCCN)NC(=O)[C@H]2CCCN2C(=O)[C@H](NC(=O)[C@@H](NC(=O)[C@@H](NC(=O)[C@H](NC(=O)CCCC(C)C)C(C)C)[C@@H](C)O)C(C)C)C(C)C)[C@@H](C)OC(=O)[C@H](C(C)C)NC1=O [Compound 11, [D-Cha^4, D-Cha^5, D-Cha^7]-KF] ({Hexanoyl(5-Me)}-[dV]TV[dV][dP][Orn][dCha][d(aThr)][dCha][dCha]F[Dhb]V; ester 8-C)
2.52E−07

Let me know recorded TGI SK-BR-3 for C/C=C1\NC(=O)[C@H](Cc2ccccc2)NC(=O)[C@@H](C(C)C)NC(=O)[C@@H]([C@@H](C)CC)NC(=O)[C@H](NC(=O)[C@H](NC(=O)[C@H](CCCN)NC(=O)[C@H]2CCCN2C(=O)[C@H](NC(=O)[C@H](Cc2ccccc2)NC(=O)[C@@H](NC(=O)[C@H](NC(=O)CCCC(C)C)C(C)C)[C@@H](C)O)C(C)C)[C@@H](C)CC)[C@@H](C)OC(=O)[C@H](C(C)C)NC1=O [Compound 43, [Phe^11]-KF] ({Hexanoyl(5-Me)}-[dV]TF[dV][dP][Orn][d(aIle)][d(aThr)][d(aIle)][dV]F[Dhb]V; ester 8-C) , thanks.
2.75E−07

Give TGI SK-BR-3 for the following compound: C/C=C1\NC(=O)[C@H](Cc2ccccc2)NC(=O)[C@@H](C(C)C)NC(=O)[C@@H]([C@@H](C)CC)NC(=O)[C@H](NC(=O)[C@H](NC(=O)[C@H](CCCN)NC(=O)[C@H]2CCCN2C(=O)[C@H](NC(=O)[C@@H](NC(=O)[C@@H](NC(=O)[C@H](NC(=O)CCCCC(C)=O)C(C)C)[C@@H](C)O)C(C)C)C(C)C)[C@@H](C)CC)[C@@H](C)OC(=O)[C@H](C(C)C)NC1=O [Compound 27, [6-OHep^14]-KF]
6.70E−06

Give TGI SK-BR-3 for C/C=C1\NC(=O)[C@H](Cc2ccccc2)NC(=O)[C@@H](C(C)C)NC(=O)[C@@H]([C@@H](C)CC)NC(=O)[C@H](NC(=O)[C@H](NC(=O)[C@H](CCCN)NC(=O)[C@H]2CCCN2C(=O)[C@H](NC(=O)[C@@H](NC(=O)[C@@H](NC(=O)[C@@H](CC2CCCCC2)NC(=O)CCCC(C)C)[C@@H](C)O)C(C)C)C(C)C)[C@@H](C)CC)[C@@H](C)OC(=O)[C@H](C(C)C)NC1=O [Compound 8, [D-Cha^13]-KF]
1.25E−06

Hello, please tell me recorded TGI SK-BR-3 for this one: C/C=C1\NC(=O)[C@H](Cc2ccccc2)NC(=O)[C@@H](C(C)C)NC(=O)[C@@H]([C@@H](C)CC)NC(=O)[C@H](NC(=O)[C@H](NC(=O)[C@H](CCCN)NC(=O)[C@H]2CCCN2C(=O)[C@H](NC(=O)[C@@H](NC(=O)[C@H](NC(=O)[C@H](NC(=O)CCCC(C)C)C(C)C)[C@H](C)O)C(C)C)C(C)C)[C@@H](C)CC)[C@@H](C)OC(=O)[C@H](C(C)C)NC1=O [Compound 7, [D-Thr^12]-KF]
6.77E−06

Please list TGI SK-BR-3 recorded for the compound C/C=C1\NC(=O)[C@H](Cc2ccccc2)NC(=O)[C@@H](C(C)C)NC(=O)[C@@H]([C@@H](C)CC)NC(=O)[C@H](NC(=O)[C@H](NC(=O)[C@H](CCCN)NC(=O)[C@H]2CCCN2C(=O)[C@H](NC(=O)[C@@H](NC(=O)[C@@H](NC(=O)[C@H](NC(=O)C(F)(F)C(F)(F)C(F)(F)C(F)(F)C(F)(F)C(F)(F)F)C(C)C)[C@@H](C)O)C(C)C)C(C)C)[C@@H](C)CC)[C@@H](C)OC(=O)[C@H](C(C)C)NC1=O [Compound 26, [Pfh^14]-KF]
4.92E−07

Quote TGI SK-BR-3 reported for C/C=C1\NC(=O)[C@H](Cc2ccccc2)NC(=O)[C@@H](C(C)C)NC(=O)[C@@H]([C@@H](C)CC)NC(=O)[C@H](NC(=O)[C@H](NC(=O)[C@H](CCCN)NC(=O)[C@H]2CCCN2C(=O)[C@H](NC(=O)[C@H](NC(=O)[C@@H](NC(=O)[C@H](NC(=O)CCCC(C)C)C(C)C)[C@@H](C)O)C(C)C)C(C)C)[C@@H](C)CC)[C@@H](C)OC(=O)[C@H](C(C)C)NC1=O [Compound 46, [D-Val^11]-KF] please.
2.75E−06

# return recorded TGI SK-BR-3 for input C/C=C1\NC(=O)[C@H](Cc2ccccc2)NC(=O)[C@@H](C(C)C)NC(=O)[C@@H]([C@@H](C)CC)NC(=O)[C@H](NC(=O)[C@H](NC(=O)[C@H](CCCN)NC(=O)[C@H]2CCCN2C(=O)[C@H](NC(=O)[C@H](CCC2CCCCC2)NC(=O)[C@@H](NC(=O)[C@H](NC(=O)CCCC(C)C)C(C)C)[C@@H](C)O)C(C)C)[C@@H](C)CC)[C@@H](C)OC(=O)[C@H](C(C)C)NC1=O [Compound 9, [hCh^11]-KF] ({Hexanoyl(5-Me)}-[dV]T[hCha][dV][dP][Orn][d(aIle)][d(aThr)][d(aIle)][dV]F[Dhb]V; ester 8-C)
3.66E−07

Determine its reported TGI SK-BR-3: C/C=C1\NC(=O)[C@H](Cc2ccccc2)NC(=O)[C@@H](C(C)C)NC(=O)[C@@H]([C@@H](C)CC)NC(=O)[C@H](NC(=O)[C@H](NC(=O)[C@H](CCCN)NC(=O)[C@H]2CCCN2C(=O)[C@H](NC(=O)[C@@H]2CCCN2C(=O)[C@@H](NC(=O)[C@H](NC(=O)CCCC(C)C)C(C)C)[C@@H](C)O)C(C)C)[C@@H](C)CC)[C@@H](C)OC(=O)[C@H](C(C)C)NC1=O [Compound 47, [Pro^11]-KF] ({Hexanoyl(5-Me)}-[dV]TP[dV][dP][Orn][d(aIle)][d(aThr)][d(aIle)][dV]F[Dhb]V; ester 8-C)
6.78E−06

Data provenance is patent US20070117743A1.
